Hey, just so you know, these numbers are from paper PMC5131915.

Test system: HOS osteosarcoma cells
Experiment: In vitro cytotoxicity testing (MTT assay), HOS
Assay type: cell-based, human
Conditions: 24 h drug exposure, no recovery, MTT; read-out: IC50±SD, HOS
Reported pIC50 values for a set of compounds
Lab note — pIC50 values are minus log10 of concentrations in M.

1) Cc1cc2c(Cl)cc[n+]([Pt-2]([I])([I])[n+]3ccc(Cl)c4cc(C)[nH]c43)c2[nH]1 [Complex 8, cis-[PtI2(2Me4Claza)2]] = 6.15
2) Brc1c[nH]c2ncccc12.Brc1c[nH]c2ncccc12.[I][Pt][I] [Complex 3, cis-[Pt(3Braza)2I2]] = 5.66
3) [I][Pt][I].c1cnc2[nH]ccc2c1.c1cnc2[nH]ccc2c1 [Complex 1, cis-[Pt(aza)2I2]] = 6.10
4) Brc1cnc2[nH]ccc2c1.Brc1cnc2[nH]ccc2c1.[I-].[I-].[Pt+2] [Complex 7, cis-[Pt(5Braza)2I2]] = 5.85

Okay, now this compound:
The reported value for Clc1ccnc2[nH]ccc12.Clc1ccnc2[nH]ccc12.[I][Pt][I] [Complex 5, cis-[Pt(4Claza)2I2]] in terms of pIC50 is 6.30

###

Below, each entry is listed with its recorded resistance factor (RF), IC50(A2780R)/IC50(A2780).
Test system: A2780R cisplatin-resistant ovarian carcinoma cells
Assay: In vitro cytotoxicity testing (MTT assay), A2780R
Assay type: cell-based, human
Details: 24 h IC50 values
Respond numerically, and do not add a unit to the figure.

Some compounds with recorded resistance factor (RF), IC50(A2780R)/IC50(A2780):
1) [I][Pt][I].c1cnc2[nH]ccc2c1.c1cnc2[nH]ccc2c1 [Complex 1, cis-[Pt(aza)2I2]] = 0.94
2) Clc1c[nH]c2ncccc12.Clc1c[nH]c2ncccc12.[I][Pt][I] [Complex 2, cis-[Pt(3Claza)2I2]] = 0.89
3) Brc1c[nH]c2ncccc12.Brc1c[nH]c2ncccc12.[I][Pt][I] [Complex 3, cis-[Pt(3Braza)2I2]] = 1.14
4) Brc1cnc2[nH]ccc2c1.Brc1cnc2[nH]ccc2c1.[I-].[I-].[Pt+2] [Complex 7, cis-[Pt(5Braza)2I2]] = 1.03
5) Cc1cc2c(Cl)cc[n+]([Pt-2]([I])([I])[n+]3ccc(Cl)c4cc(C)[nH]c43)c2[nH]1 [Complex 8, cis-[PtI2(2Me4Claza)2]] = 0.59
6) Brc1cc[n+]([Pt-2]([I])([I])[n+]2ccc(Br)c3cc[nH]c32)c2[nH]ccc12 [Complex 6, cis-[Pt(4Braza)2I2]] = 1.03
7) Ic1c[nH]c2c1ccc[n+]2[Pt-2]([I])([I])[n+]1cccc2c(I)c[nH]c21 [Complex 4, cis-[PtI2(3Iaza)2]] = 1.13

From here, focus on the item given below.
Readout resistance factor (RF), IC50(A2780R)/IC50(A2780) for Clc1ccnc2[nH]ccc12.Clc1ccnc2[nH]ccc12.[I][Pt][I] [Complex 5, cis-[Pt(4Claza)2I2]] , test system A2780R cisplatin-resistant ovarian carcinoma cells, was 1.10

###

Measured IC50 by item
Tested on: HOS osteosarcoma cells
Assay: In vitro cytotoxicity testing (MTT assay), HOS
Format: cell-based, human
Conditions: 24 h drug exposure, no recovery, MTT; read-out: IC50±SD, HOS
State just the number; it will be interpreted in µM.

1) N.N.[Cl][Pt][Cl] [Cisplatin, cisplatin, reference compound] = 18.9
2) Clc1c[nH]c2ncccc12.Clc1c[nH]c2ncccc12.[I][Pt][I] [Complex 2, cis-[Pt(3Claza)2I2]] = 1.3
3) Brc1cc[n+]([Pt-2]([I])([I])[n+]2ccc(Br)c3cc[nH]c32)c2[nH]ccc12 [Complex 6, cis-[Pt(4Braza)2I2]] = 0.4

Could you now look at the following compound, please?
Briefly, IC50 measured for Ic1c[nH]c2c1ccc[n+]2[Pt-2]([I])([I])[n+]1cccc2c(I)c[nH]c21 [Complex 4, cis-[PtI2(3Iaza)2]] : 2.8

###

System: L1210 mouse lymphocytic leukaemia cells
Assay: In vivo antitumour activity testing, L1210 lymphocytic leukaemia model
Parameters: species or system mice
Settings: i.p., dose equimolar to cisplatin 2 mg/kg
OBSERVATION_TYPE: percentage of mean survival time T/C (%)
Use % as the unit, but write only the number.

In the examples that follow, each entry is paired with its recorded percentage of mean survival time T/C.
1. Cc1cc2c(Cl)cc[n+]([Pt-2]([I])([I])[n+]3ccc(Cl)c4cc(C)[nH]c43)c2[nH]1 [Complex 8, cis-[PtI2(2Me4Claza)2]] = 109
2. N.N.[Cl][Pt][Cl] [Cisplatin, cisplatin, reference compound] = 108

percentage of mean survival time T/C in this record for Brc1cc[n+]([Pt-2]([I])([I])[n+]2ccc(Br)c3cc[nH]c32)c2[nH]ccc12 [Complex 6, cis-[Pt(4Braza)2I2]] : 99

Recorded percentage of mean survival time T/C (compound Clc1ccnc2[nH]ccc12.Clc1ccnc2[nH]ccc12.[I][Pt][I] [Complex 5, cis-[Pt(4Claza)2I2]] ): 100

###

Test system: A549 lung carcinoma cells
Assay: In vitro cytotoxicity testing (MTT assay), A549
Format: cell-based, human
Conditions: 24 h drug exposure, no recovery, read-out: IC50±SD, A549
OBSERVATION_TYPE: pIC50
// pIC50 here means minus log10 of the molar concentration (mol/L)

1) Brc1cnc2[nH]ccc2c1.Brc1cnc2[nH]ccc2c1.[I-].[I-].[Pt+2] [Complex 7, cis-[Pt(5Braza)2I2]] = 5.14
2) Brc1c[nH]c2ncccc12.Brc1c[nH]c2ncccc12.[I][Pt][I] [Complex 3, cis-[Pt(3Braza)2I2]] = 5.06
3) [I][Pt][I].c1cnc2[nH]ccc2c1.c1cnc2[nH]ccc2c1 [Complex 1, cis-[Pt(aza)2I2]] = 4.91
4) Cc1cc2c(Cl)cc[n+]([Pt-2]([I])([I])[n+]3ccc(Cl)c4cc(C)[nH]c43)c2[nH]1 [Complex 8, cis-[PtI2(2Me4Claza)2]] = 5.46
5) Ic1c[nH]c2c1ccc[n+]2[Pt-2]([I])([I])[n+]1cccc2c(I)c[nH]c21 [Complex 4, cis-[PtI2(3Iaza)2]] = 5.01

get_value(item= Clc1ccnc2[nH]ccc12.Clc1ccnc2[nH]ccc12.[I][Pt][I] [Complex 5, cis-[Pt(4Claza)2I2]] , readout=pIC50) returns 5.33

# compound Clc1c[nH]c2ncccc12.Clc1c[nH]c2ncccc12.[I][Pt][I] [Complex 2, cis-[Pt(3Claza)2I2]] ; its pIC50 = 5.19

The recorded pIC50 for Brc1cc[n+]([Pt-2]([I])([I])[n+]2ccc(Br)c3cc[nH]c32)c2[nH]ccc12 [Complex 6, cis-[Pt(4Braza)2I2]] is 5.37

###

System: human non-cancerous hepatocytes (Hep)
Assay: In vitro cytotoxicity testing (MTT assay), hepatocytes
Format: cell-based
Details: 24 h drug exposure, no recovery
OBSERVATION_TYPE: pIC50
Conceptually, pIC50 converts a concentration in mol/L into minus its log10.

1. [I][Pt][I].c1cnc2[nH]ccc2c1.c1cnc2[nH]ccc2c1 [Complex 1, cis-[Pt(aza)2I2]] = 5.41
2. Brc1cc[n+]([Pt-2]([I])([I])[n+]2ccc(Br)c3cc[nH]c32)c2[nH]ccc12 [Complex 6, cis-[Pt(4Braza)2I2]] = 5.39
3. Cc1cc2c(Cl)cc[n+]([Pt-2]([I])([I])[n+]3ccc(Cl)c4cc(C)[nH]c43)c2[nH]1 [Complex 8, cis-[PtI2(2Me4Claza)2]] = 5.02
4. Clc1c[nH]c2ncccc12.Clc1c[nH]c2ncccc12.[I][Pt][I] [Complex 2, cis-[Pt(3Claza)2I2]] = 5.23
5. Brc1cnc2[nH]ccc2c1.Brc1cnc2[nH]ccc2c1.[I-].[I-].[Pt+2] [Complex 7, cis-[Pt(5Braza)2I2]] = 5.42

pIC50 in this record for Clc1ccnc2[nH]ccc12.Clc1ccnc2[nH]ccc12.[I][Pt][I] [Complex 5, cis-[Pt(4Claza)2I2]] : 5.38

Given item Brc1c[nH]c2ncccc12.Brc1c[nH]c2ncccc12.[I][Pt][I] [Complex 3, cis-[Pt(3Braza)2I2]] , the value recorded as its pIC50 is 5.41

Item: Ic1c[nH]c2c1ccc[n+]2[Pt-2]([I])([I])[n+]1cccc2c(I)c[nH]c21 [Complex 4, cis-[PtI2(3Iaza)2]] | pIC50: 4.93

###

System: A2780 ovarian carcinoma cells
Assay: In vitro cytotoxicity testing (MTT assay), A2780
Type: cell-based, human
Details: 48 h exposure; read-out: IC50, A2780, time-dependent cytotoxicity
OBSERVATION_TYPE: IC50 (nM)
The response must be a number in nM with no trailing unit.

Looking up Brc1cc[n+]([Pt-2]([I])([I])[n+]2ccc(Br)c3cc[nH]c32)c2[nH]ccc12 [Complex 6, cis-[Pt(4Braza)2I2]] , I see its IC50 listed as 400
